Target: RANBP1 39-170 Ran_BP1 (domain begin residue: 39, domain end residue: 170), P43487
Sequence (P43487 whole entry): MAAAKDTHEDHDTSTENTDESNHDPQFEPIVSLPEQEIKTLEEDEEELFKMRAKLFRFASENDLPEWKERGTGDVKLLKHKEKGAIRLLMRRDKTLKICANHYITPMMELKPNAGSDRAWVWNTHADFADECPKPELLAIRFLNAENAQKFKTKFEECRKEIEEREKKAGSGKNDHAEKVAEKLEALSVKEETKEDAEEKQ
Experiment: phage ELISA signal ratio (GST-PRM binding over GST background); higher = stronger binding of peptide-phage to the PRM
Reported property: phage ELISA signal ratio
Numbers only.

Below: 5 binders and their reported phage ELISA signal ratio.
Binder: QEFWERYTIPMWVDSF
Obs value: 13.7

Binder: DMEQWWMELPQVPMYA
Obs value: 23.1

Binder: PQWWHNMPALPDDIIH
Obs value: 14.7

Binder: IDSYEHHSTGMVPLPD
Obs value: 26.3

Binder: DHGWWMLNSNFLPVVP
Obs value: 9.28

Then this binder:
Briefly, phage ELISA signal ratio measured for `GTEWWQQMALPPDVVV` : 7.62
